// data source = PubChem BioAssay (EPA / NIEHS)

assay-protocol: ATG_TA_CIS: Attagene CIS-FACTORIAL HepG2 Assay for human TA Basal Promoter (AID 2282964)
experimental-parameters: HepG2 Attagene CIS-factorial TA basal promoter reporter; actives raise or lower the signal
The source made the active and inactive calls. The calls were made as follows: active = hit-call score of the fitted dose curve at least 0.9, where 1 is the maximum; inactive = score below 0.9.
Parameter call: string, one of 1 (yes) = active, 0 (no) = inactive

CC[C@H](C)[C@H]1O[C@]2(C=C[C@@H]1C)C[C@@H]1C[C@@H](C/C=C(\C)[C@@H](O[C@H]3C[C@H](OC)[C@@H](O[C@H]4C[C@H](OC)[C@@H](NC)[C@H](C)O4)[C@H](C)O3)[C@@H](C)/C=C/C=C3\CO[C@@H]4[C@H](O)C(C)=C[C@@H](C(=O)O1)[C@]34O)O2 = 0 (no)

Problem: Write down the call the test reported for this molecule. Item: `CC1=NNC(=O)N(/N=C/c2cccnc2)C1`
Solution: 0 (no)

Problem: Write down the call the test reported for this molecule. Item: CCC(=NOC/C=C/Cl)C1=C(O)CC(C2CCOCC2)CC1=O (configuration not stated)
Solution: 0 (no)

Problem: Write down the call the test reported for this molecule. Item: `COc1ccc(C(=CC(=O)N2CCOCC2)c2ccc(Cl)cc2)cc1OC`
Solution: 0 (no)

====

Read-out: Cyclin D1 (CCND1), CCND1 (gene 595)
assay-protocol: LTEA_HepaRG_CCND1: Life Technologies and Expression Analysis (LTEA) Assay for Cyclin D1 (CCND1) using HepaRG (AID 2283451)
experimental-parameters: mRNA level, 48 h; actives raise or lower the signal
Calls of active or inactive are those of the source. Rule for the calls: active = hit-call score of the fitted dose curve at least 0.9, where 1 is the maximum; inactive = score below 0.9.
result-type: outcome

In the examples that follow, each entry is paired with its recorded outcome.
Nc1nc(N)nc(NC2CC2)n1 = inactive
CN1COCN(Cc2cnc(Cl)s2)C1=N[N+](=O)[O-] = inactive
CCOP(=S)(OCC)Oc1ccc2c(C)c(Cl)c(=O)oc2c1 = inactive
CCCCOC(=O)c1ccccc1C(=O)O = inactive

Problem: # query: outcome of entry `CCCOCC(=Nc1ccc(Cl)cc1C(F)(F)F)n1ccnc1`
Solution: inactive

Problem: # query: outcome of entry `Cc1ccn2nc(S(=O)(=O)Nc3c(F)cccc3F)nc2n1`
Solution: inactive

Problem: # query: outcome of entry `Cc1cc(C2CC2)nc(Nc2ccccc2)n1`
Solution: inactive

====

Read-out: xenobiotic metabolism (CYP1A1), CYP1A1 (gene 1543)
assay-protocol: CLD_CYP1A1_24hr: CellzDirect (CLD) Gene Expression Assay for xenobiotic metabolism (CYP1A1) at 24 hours (AID 2283673);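 also: CYP1A1 mRNA level by quantitative nuclease protection with chemiluminescence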
Results filed as inconclusive are left out. Active and inactive are the calls of the source. How the source made its calls: active means hit-call score of the fitted dose curve at least 0.9, where 1 is the maximum; inconclusive means response in the unintended direction; inactive means score below 0.9.
Parameter call: string, one of active, inactive

Would you please look over these solved cases?
N#CSCSC#N = inactive
CCOP(=S)(OCC)Oc1ccc([N+](=O)[O-])cc1 = active
CN(C)C(=O)Nc1cccc(C(F)(F)F)c1 = active
Cc1ccn2nc(S(=O)(=O)Nc3c(F)cccc3F)nc2n1 = inactive
CC[C@H](C)[C@H]1O[C@]2(C=C[C@@H]1C)C[C@@H]1C[C@@H](C/C=C(\C)[C@@H](O[C@H]3C[C@H](OC)[C@@H](O[C@H]4C[C@H](OC)[C@@H](NC)[C@H](C)O4)[C@H](C)O3)[C@@H](C)/C=C/C=C3\CO[C@@H]4[C@H](O)C(C)=C[C@@H](C(=O)O1)[C@]34O)O2 = inactive

Next compound, please.
Problem: Write down the call the test reported for this compound. Item: `C#CC(C)(C)NC(=O)c1cc(Cl)cc(Cl)c1`
Solution: inactive

====

subject-of-test: human Serotonin, 5-Hydroxytryptamine Receptor 5A (5HT5A), HTR5A (gene 3361)
assay-protocol: NVS_GPCR_h5HT5A: NovaScreen (NVS) G Protein-Coupled Receptor Assay for human Serotonin, 5-Hydroxytryptamine Receptor 5A (5HT5A) (AID 2283251)
Method: NVS_GPCR_h5HT5A is a biochemical, single-readout assay that uses extracted gene-proteins from HEK293 in a cell-free assay. Measurements were taken 1 hour after chemical dosing in a 96-well plate.NVS_GPCR_h5HT5A is one of one assay component(s) measured or calculated from the NVS_GPCR_h5HT5A assay. […] This assay endpoint, NVS_GPCR_h5HT5A, was analyzed in the positive analysis fitting direction relative to DMSO as the negative control and baseline of activity. […]
Results filed as inconclusive are left out. The source made the active and inactive calls. How the source made its calls: active means hit-call score of the fitted dose curve at least 0.9, where 1 is the maximum; inconclusive means response in the unintended direction; inactive means score below 0.9.
Parameter call: string, one of active, inactive

CC[C@H](C)[C@H]1O[C@]2(C=C[C@@H]1C)C[C@@H]1C[C@@H](C/C=C(\C)[C@@H](O[C@H]3C[C@H](OC)[C@@H](O[C@H]4C[C@H](OC)[C@@H](NC)[C@H](C)O4)[C@H](C)O3)[C@@H](C)/C=C/C=C3\CO[C@@H]4[C@H](O)C(C)=C[C@@H](C(=O)O1)[C@]34O)O2 = active
O=c1ccc(=O)[nH][nH]1 = inactive
CCOP(=S)(OCC)Oc1ccc2c(C)c(Cl)c(=O)oc2c1 = inactive
CC(COc1ccc(Oc2ccccc2)cc1)Oc1ccccn1 (stereo not drawn) = inactive
CC(Oc1cccc(Cl)c1)C(=O)O (stereo not drawn) = inactive
CC(C)[C@H](C(=O)O[C@H](C#N)c1cccc(Oc2ccccc2)c1)c1ccc(Cl)cc1 = active
C=C(C)[C@H]1Cc2c(ccc3c2O[C@@H]2COc4cc(OC)c(OC)cc4[C@@H]2C3=O)O1 = inactive

Next compound, please.
Problem: Write down the call the test reported for this compound. Item: `O=C(O)c1cc(Oc2ccc(C(F)(F)F)cc2Cl)ccc1[N+](=O)[O-]`
Solution: inactive

====

assay-protocol: IUF_NPC2-5_cytotoxicity_120hr: Cytotoxicity Assessment at 120 hours in the Leibniz Research Institute for Environmental Medicine (IUF) Neural Progenitor Cell Migration and Differentiation Assay (NPC2-5) (AID 2284307)
Calls of active or inactive are those of the source. Rule for the calls: active = hit-call score of the fitted dose curve at least 0.9, where 1 is the maximum; inconclusive = response in the unintended direction; inactive = score below 0.9.
Parameter call: string, one of 1.0 for active, 0.0 for inactive

S=C1NCCN1 = 0.0
CON=C(C(=O)OC)c1ccccc1CON=C(C)c1cccc(C(F)(F)F)c1 = 0.0
CC1=NNC(=O)N(/N=C/c2cccnc2)C1 = 0.0

Problem: Write down the call the test reported for this compound. Item: `C[N+]1(C)CCCCC1`
Solution: 1.0

Problem: Write down the call the test reported for this compound. Item: `CN(C)[C@@H]1C(=O)C(C(N)=O)=C(O)[C@@]2(O)C(=O)C3=C(O)c4c(O)cccc4[C@@](C)(O)[C@H]3[C@H](O)[C@@H]12`
Solution: 1.0

Problem: Write down the call the test reported for this compound. Item: COP(=O)(NC(C)=O)SC (stereo unspecified)
Solution: 0.0

====

Read-out: xenobiotic metabolism (CYP1A2), CYP1A2 (gene 1544)
assay-protocol: CLD_CYP1A2_48hr: CellzDirect (CLD) Gene Expression Assay for xenobiotic metabolism (CYP1A2) at 48 hours (AID 2283703)
Inconclusive results are not listed. Activity calls are given as the source filed them. Rule for the calls: active = hit-call score of the fitted dose curve at least 0.9, where 1 is the maximum; inconclusive = response in the unintended direction; inactive = score below 0.9.
Parameter call: string, one of Yes (active), No (inactive)

C#CCC1=C(C)C(OC(=O)C2C(C=C(C)C)C2(C)C)CC1=O (stereo unspecified) = Yes
CC1=NNC(=O)N(/N=C/c2cccnc2)C1 = Yes
CN(C)C(=O)Nc1cccc(C(F)(F)F)c1 = Yes
CN(C)NC(=O)CCC(=O)O = No
CCOP(=O)(OCC)Oc1cc(C)nc(C(C)C)n1 = Yes
CCc1cnc(C2=NC(C)(C(C)C)C(=O)N2)c(C(=O)O)c1 (stereo unspecified) = No

Problem: Write down the call the test reported for this molecule. Item: `CSc1nnc(C(C)(C)C)c(=O)n1N`
Solution: Yes

Problem: Write down the call the test reported for this molecule. Item: `O=[N+]([O-])c1cc(C(F)(F)F)c(Cl)c([N+](=O)[O-])c1Nc1ncc(C(F)(F)F)cc1Cl`
Solution: Yes

Problem: Write down the call the test reported for this molecule. Item: `CCOP(=S)(OCC)SCCSCC`
Solution: Yes

Problem: Write down the call the test reported for this molecule. Item: CCOP(=O)(NC(C)C)Oc1ccc(SC)c(C)c1 (stereo unspecified)
Solution: Yes

Problem: Write down the call the test reported for this molecule. Item: CC(C1CC1)C(O)(Cn1cncn1)c1ccc(Cl)cc1 (stereo unspecified)
Solution: Yes

Problem: Write down the call the test reported for this molecule. Item: `COc1cccc(C(=O)NN(C(=O)c2cc(C)cc(C)c2)C(C)(C)C)c1C`
Solution: Yes

Problem: Write down the call the test reported for this molecule. Item: `CCCSP(=O)(OCC)SCCC`
Solution: No

Problem: Write down the call the test reported for this molecule. Item: `COc1cc(OC)nc(Sc2cccc(Cl)c2C(=O)O)n1`
Solution: No

Problem: Write down the call the test reported for this molecule. Item: `CC(C)[C@H](C(=O)O[C@H](C#N)c1cccc(Oc2ccccc2)c1)c1ccc(Cl)cc1`
Solution: Yes

====

assay-protocol: Tanguay_ZF_120hpf_OTIC_legacy: (Legacy) Oregon State University Tanguay Lab 120 Hour Post-fertilization zebrafish Assay for Otic Vesicle Malformation (AID 2283639)
Records with an inconclusive call do not appear. Calls of active or inactive are those of the source. Rule for the calls: active = hit-call score of the fitted dose curve at least 0.9, where 1 is the maximum; inconclusive = response in the unintended direction; inactive = score below 0.9.
Parameter call: string, one of active, inactive

O=C(O)c1cc(Oc2ccc(C(F)(F)F)cc2Cl)ccc1[N+](=O)[O-] = inactive
CCOP(=O)(OCC)Oc1cc(C)nc(C(C)C)n1 = inactive
Cc1ccn2nc(S(=O)(=O)Nc3c(F)cccc3F)nc2n1 = inactive
C#CCC1=C(C)C(OC(=O)C2C(C=C(C)C)C2(C)C)CC1=O (stereo not given) = inactive
CNC(=O)Oc1cccc2c1OC(C)(C)O2 = inactive

Problem: Write down the call the test reported for this molecule. Item: `CC[C@H](C)[C@H]1O[C@]2(C=C[C@@H]1C)C[C@@H]1C[C@@H](C/C=C(\C)[C@@H](O[C@H]3C[C@H](OC)[C@@H](O[C@H]4C[C@H](OC)[C@@H](NC)[C@H](C)O4)[C@H](C)O3)[C@@H](C)/C=C/C=C3\CO[C@@H]4[C@H](O)C(C)=C[C@@H](C(=O)O1)[C@]34O)O2`
Solution: inactive

Problem: Write down the call the test reported for this molecule. Item: `C[N+]1(C)CCCCC1`
Solution: inactive

Problem: Write down the call the test reported for this molecule. Item: `COc1cccc(C(=O)NN(C(=O)c2cc(C)cc(C)c2)C(C)(C)C)c1C`
Solution: inactive

Problem: Write down the call the test reported for this molecule. Item: `N#CSCSC#N`
Solution: inactive

Problem: Write down the call the test reported for this molecule. Item: `Nc1c(Cl)cc([N+](=O)[O-])cc1Cl`
Solution: active
